Numbers sourced from patent US9572801B2.

Target: αvβ6 (Homo sapiens, UniProt P06756+P18564)
Sequence (P06756 31-992 limits assumed): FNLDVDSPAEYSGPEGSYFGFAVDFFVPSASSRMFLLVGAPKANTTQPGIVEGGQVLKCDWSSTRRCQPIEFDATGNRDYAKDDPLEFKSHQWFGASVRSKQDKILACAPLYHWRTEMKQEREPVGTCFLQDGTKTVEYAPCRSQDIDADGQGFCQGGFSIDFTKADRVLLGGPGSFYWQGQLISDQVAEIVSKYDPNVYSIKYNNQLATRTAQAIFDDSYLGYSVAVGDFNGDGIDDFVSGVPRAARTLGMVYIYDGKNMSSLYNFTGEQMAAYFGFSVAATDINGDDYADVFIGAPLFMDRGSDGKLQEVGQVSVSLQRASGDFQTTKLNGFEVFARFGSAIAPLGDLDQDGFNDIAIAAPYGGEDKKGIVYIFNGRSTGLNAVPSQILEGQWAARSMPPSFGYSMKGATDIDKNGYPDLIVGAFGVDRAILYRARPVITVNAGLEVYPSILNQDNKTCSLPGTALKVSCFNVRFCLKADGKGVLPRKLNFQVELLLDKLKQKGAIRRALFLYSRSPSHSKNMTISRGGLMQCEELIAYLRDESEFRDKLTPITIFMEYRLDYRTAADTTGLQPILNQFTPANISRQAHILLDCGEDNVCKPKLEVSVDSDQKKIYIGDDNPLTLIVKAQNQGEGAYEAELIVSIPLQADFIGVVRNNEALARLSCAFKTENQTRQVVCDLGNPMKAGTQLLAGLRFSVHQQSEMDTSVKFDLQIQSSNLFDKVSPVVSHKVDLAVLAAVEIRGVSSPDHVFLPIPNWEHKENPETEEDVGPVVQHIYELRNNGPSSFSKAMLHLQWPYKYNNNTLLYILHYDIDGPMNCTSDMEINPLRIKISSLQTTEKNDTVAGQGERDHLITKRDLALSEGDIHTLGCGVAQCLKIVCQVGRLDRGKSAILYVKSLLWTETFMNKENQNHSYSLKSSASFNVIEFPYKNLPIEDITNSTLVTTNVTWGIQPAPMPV
Sequence (P18564 22-707 limits assumed): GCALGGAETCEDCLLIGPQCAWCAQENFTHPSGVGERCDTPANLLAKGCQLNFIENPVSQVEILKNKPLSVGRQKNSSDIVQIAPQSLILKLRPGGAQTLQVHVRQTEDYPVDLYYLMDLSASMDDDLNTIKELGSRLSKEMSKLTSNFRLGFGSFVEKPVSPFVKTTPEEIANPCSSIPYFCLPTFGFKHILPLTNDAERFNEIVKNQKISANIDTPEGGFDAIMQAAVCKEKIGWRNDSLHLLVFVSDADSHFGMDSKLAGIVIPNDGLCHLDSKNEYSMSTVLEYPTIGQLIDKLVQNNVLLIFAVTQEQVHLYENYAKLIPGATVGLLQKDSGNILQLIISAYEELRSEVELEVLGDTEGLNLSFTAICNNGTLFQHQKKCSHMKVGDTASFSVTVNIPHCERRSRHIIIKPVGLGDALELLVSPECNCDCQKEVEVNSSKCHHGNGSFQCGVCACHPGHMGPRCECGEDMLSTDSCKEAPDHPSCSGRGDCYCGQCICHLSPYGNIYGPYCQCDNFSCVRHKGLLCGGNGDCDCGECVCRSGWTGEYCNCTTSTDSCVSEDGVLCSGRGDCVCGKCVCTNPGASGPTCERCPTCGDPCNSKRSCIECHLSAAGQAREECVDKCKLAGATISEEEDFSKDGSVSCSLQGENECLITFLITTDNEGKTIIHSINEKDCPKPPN
Assay: αv integrin binding assay, αVβ6-LAP-TGF β1 interaction (integrin coupled beads, flow cytometry)
Conditions: ligand LAP-TGF β1 (LAP1) 10 nM; integrin 10 nM
Assay Endpoint: IC50 (nM)
Answers are plain numbers, in nM.

For COc1ccc([C@H](CC(=O)O)N2CCN(CCCc3ccc4c(n3)NCCC4)C2=O)cn1 , what is its reported IC50?
9.57
